Origin of measurements: patent US20210283261A1

# EXPERIMENTAL SYSTEM: ALK fusion protein (Homo sapiens, UniProt Q9UM73)
# Construct: endogenous in cells; host or cells: NCI-H3122; the other entry of the earlier key: EML4 (Q9HC35, Echinoderm microtubule-associated protein-like 4)
# Sequence (Q9UM73 with tags, fused parts or gaps): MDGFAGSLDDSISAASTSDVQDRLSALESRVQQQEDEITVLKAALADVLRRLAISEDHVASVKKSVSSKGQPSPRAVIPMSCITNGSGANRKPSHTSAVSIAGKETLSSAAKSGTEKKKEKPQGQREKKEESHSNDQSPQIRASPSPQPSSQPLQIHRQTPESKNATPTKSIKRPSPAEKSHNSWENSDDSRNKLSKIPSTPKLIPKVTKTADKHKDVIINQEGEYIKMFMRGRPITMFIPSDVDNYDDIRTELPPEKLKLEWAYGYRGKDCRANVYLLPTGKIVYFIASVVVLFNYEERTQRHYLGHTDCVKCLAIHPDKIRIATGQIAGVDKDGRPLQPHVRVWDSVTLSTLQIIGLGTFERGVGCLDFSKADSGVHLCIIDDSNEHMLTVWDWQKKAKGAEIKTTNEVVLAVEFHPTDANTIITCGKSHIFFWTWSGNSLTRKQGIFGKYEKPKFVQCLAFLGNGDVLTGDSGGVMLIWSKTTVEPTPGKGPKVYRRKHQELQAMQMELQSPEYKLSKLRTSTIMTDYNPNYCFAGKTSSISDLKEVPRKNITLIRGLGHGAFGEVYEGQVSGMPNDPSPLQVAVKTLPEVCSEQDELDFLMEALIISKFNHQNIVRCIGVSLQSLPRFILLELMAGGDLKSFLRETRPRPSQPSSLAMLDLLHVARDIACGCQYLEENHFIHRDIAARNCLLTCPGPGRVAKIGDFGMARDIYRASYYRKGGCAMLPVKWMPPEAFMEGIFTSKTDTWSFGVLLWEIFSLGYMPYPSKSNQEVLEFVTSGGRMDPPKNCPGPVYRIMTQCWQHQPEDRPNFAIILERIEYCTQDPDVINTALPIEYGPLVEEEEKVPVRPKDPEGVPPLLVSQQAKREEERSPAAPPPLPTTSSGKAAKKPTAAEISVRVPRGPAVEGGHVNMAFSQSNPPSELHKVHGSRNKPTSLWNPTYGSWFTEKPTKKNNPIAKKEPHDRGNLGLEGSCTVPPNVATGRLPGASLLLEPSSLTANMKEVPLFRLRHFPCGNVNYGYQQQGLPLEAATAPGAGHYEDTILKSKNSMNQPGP
# ASSAY SUMMARY: Western blot of ALK fusion protein levels in NCI-H3122 cells
# Type: cell-based
# CONDITION SET: NCI-H3122, NCI-H3122 cells, 500 nM, Western blot; read-out: ALK fusion protein degradation, NCI-H3122 (500 nM)
Listing of recorded Dmax at 0.5 µM by entry.

>  <LINE NOTATION>
Cc1cc(Nc2ncc(Cl)c(Nc3ccccc3S(=O)(=O)C(C)C)n2)c(OC(C)C)cc1C1CCN(C(=O)CCOCCOCCOCCOCCC(=O)N[C@H](C(=O)N2C[C@H](O)C[C@H]2C(=O)NCc2ccc(-c3scnc3C)cc2)C(C)(C)C)CC1

>  <Dmax at 0.5 µM>
< 20%

$$$$
>  <LINE NOTATION>
Cc1cc(Nc2ncc(Cl)c(Nc3ccccc3S(=O)(=O)C(C)C)n2)c(OC(C)C)cc1C1CCN(C(=O)COCC(=O)N[C@H](C(=O)N2C[C@H](O)C[C@H]2C(=O)NCc2ccc(-c3scnc3C)cc2)C(C)(C)C)CC1

>  <Dmax at 0.5 µM>
20 to 80%

$$$$

====

The reader will find reported Dmax at 0.5 µM values listed item by item below.
# EXPERIMENTAL SYSTEM: ALK fusion protein (Homo sapiens)
# Construct: endogenous in cells; host or cells: NCI-H3122; the other entry of the earlier key: EML4 (Q9HC35, Echinoderm microtubule-associated protein-like 4)
# ASSAY SUMMARY: Western blot of ALK fusion protein levels in NCI-H3122 cells
# Type: cell-based
# CONDITION SET: NCI-H3122, NCI-H3122 cells, 500 nM, Western blot; read-out: ALK fusion protein degradation, NCI-H3122 (500 nM)

>  <COMPOUND>
Cc1cc(Nc2ncc(Cl)c(Nc3ccccc3S(=O)(=O)C(C)C)n2)c(OC(C)C)cc1C1CCN(C(=O)COCCOCC(=O)N[C@H](C(=O)N2C[C@H](O)C[C@H]2C(=O)N[C@@H](C)c2ccc(-c3scnc3C)cc2)C(C)(C)C)CC1

>  <Dmax at 0.5 µM>
> 80%

$$$$
>  <COMPOUND>
Cc1cc(Nc2ncc(Cl)c(Nc3ccccc3S(=O)(=O)C(C)C)n2)c(OC(C)C)cc1C1CCN(C(=O)CCCCNc2cccc3c2C(=O)N(C2CCC(=O)NC2=O)C3=O)CC1 (centres unmarked)

>  <Dmax at 0.5 µM>
20 to 80%

$$$$
>  <COMPOUND>
Cc1cc(Nc2ncc(Cl)c(Nc3ccccc3S(=O)(=O)C(C)C)n2)c(OC(C)C)cc1C1CCN(C(=O)CCCCC(=O)N[C@H](C(=O)N2C[C@@H](O)C[C@H]2C(=O)NCc2ccc(-c3scnc3C)cc2)C(C)(C)C)CC1

>  <Dmax at 0.5 µM>
< 20%

$$$$
>  <COMPOUND>
Cc1cc(Nc2ncc(Cl)c(Nc3ccccc3S(=O)(=O)C(C)C)n2)c(OC(C)C)cc1C1CCN(C(=O)CCCCCC(=O)N[C@H](C(=O)N2C[C@H](O)C[C@H]2C(=O)NCc2ccc(-c3scnc3C)cc2)C(C)(C)C)CC1

>  <Dmax at 0.5 µM>
> 80%

$$$$
>  <COMPOUND>
Cc1cc(Nc2ncc(Cl)c(Nc3ccccc3S(=O)(=O)C(C)C)n2)c(OC(C)C)cc1C1CCN(C(=O)CCCCC(=O)N[C@H](C(=O)N2C[C@H](O)C[C@H]2C(=O)N[C@@H](C)c2ccc(-c3scnc3C)cc2)C(C)(C)C)CC1

>  <Dmax at 0.5 µM>
> 80%

$$$$

====

# EXPERIMENTAL SYSTEM: ALK fusion protein (Homo sapiens)
# Construct: endogenous in cells; host or cells: NCI-H3122; the other entry of the earlier key: EML4 (Q9HC35, Echinoderm microtubule-associated protein-like 4)
# ASSAY SUMMARY: Western blot of ALK fusion protein levels in NCI-H3122 cells
# Assay type: cell-based
# CONDITION SET: NCI-H3122 cells, 16 h
# Experimental: SU-DHL-1, NCI-H3122 and NCI-H2228 cells were cultured in RPMI-1640 medium supplemented with 10% fetal bovine serum, 50 μg/mL penicillin and streptomycin. Cells were cultured in a 37° C. incubator with 5% CO2. Cells were washed with cold PBS once and lysed in 1× Laemmli loading buffer directly. Lysates were heated at 99° C. for […], and resolved on 4-15% precast SDS-PAGE (BIO-RAD) and transferred onto PVDF membrane. […]
QUANTITY: significantly reduced ALK fusion protein levels (degraders vs negative controls)

>  <COMPOUND>
Cc1cc(Nc2ncc(Cl)c(Nc3ccccc3S(=O)(=O)C(C)C)n2)c(OC(C)C)cc1C1CCN(C(=O)CCCC(=O)N[C@H](C(=O)N2C[C@@H](O)C[C@H]2C(=O)NCc2ccc(-c3scnc3C)cc2)C(C)(C)C)CC1

>  <EXPERIMENTAL SYSTEM>
ALK fusion protein (Homo sapiens)

>  <RESULT>
not

$$$$
>  <COMPOUND>
Cc1cc(Nc2ncc(Cl)c(Nc3ccccc3S(=O)(=O)C(C)C)n2)c(OC(C)C)cc1C1CCN(C(=O)CCCCC(=O)N[C@H](C(=O)N2C[C@H](O)C[C@H]2C(=O)NCc2ccc(-c3scnc3C)cc2)C(C)(C)C)CC1

>  <EXPERIMENTAL SYSTEM>
ALK fusion protein (Homo sapiens)

>  <RESULT>
significantly reduced

$$$$
>  <COMPOUND>
Cc1cc(Nc2ncc(Cl)c(Nc3ccccc3S(=O)(=O)C(C)C)n2)c(OC(C)C)cc1C1CCN(C(=O)CCCCC(=O)N[C@H](C(=O)N2C[C@@H](O)C[C@H]2C(=O)NCc2ccc(-c3scnc3C)cc2)C(C)(C)C)CC1

>  <EXPERIMENTAL SYSTEM>
ALK fusion protein (Homo sapiens)

>  <RESULT>
not

$$$$
>  <COMPOUND>
Cc1cc(Nc2ncc(Cl)c(Nc3ccccc3S(=O)(=O)C(C)C)n2)c(OC(C)C)cc1C1CCN(C(=O)COCCOCC(=O)N[C@H](C(=O)N2CC(O)C[C@H]2C(=O)NCc2ccc(-c3scnc3C)cc2)C(C)(C)C)CC1 (stereo in doubt)

>  <EXPERIMENTAL SYSTEM>
ALK fusion protein (Homo sapiens)

>  <RESULT>
not

$$$$
>  <COMPOUND>
Cc1cc(Nc2ncc(Cl)c(Nc3ccccc3S(=O)(=O)C(C)C)n2)c(OC(C)C)cc1C1CCN(C(=O)CCCC(=O)N[C@H](C(=O)N2C[C@H](O)C[C@H]2C(=O)NCc2ccc(-c3scnc3C)cc2)C(C)(C)C)CC1

>  <EXPERIMENTAL SYSTEM>
ALK fusion protein (Homo sapiens)

>  <RESULT>
significantly reduced

$$$$
>  <COMPOUND>
Cc1cc(Nc2ncc(Cl)c(Nc3ccccc3S(=O)(=O)C(C)C)n2)c(OC(C)C)cc1C1CCN(C(=O)COCCOCC(=O)N[C@H](C(=O)N2C[C@H](O)C[C@H]2C(=O)NCc2ccc(-c3scnc3C)cc2)C(C)(C)C)CC1

>  <EXPERIMENTAL SYSTEM>
ALK fusion protein (Homo sapiens)

>  <RESULT>
significantly reduced

$$$$

====

As shown below, each of these compounds has a reported Dmax at 0.5 µM value.
# EXPERIMENTAL SYSTEM: ALK fusion protein (Homo sapiens, UniProt Q9UM73)
# Construct: endogenous in cells; host or cells: NCI-H3122; the other entry of the earlier key: EML4 (Q9HC35, Echinoderm microtubule-associated protein-like 4)
# ASSAY SUMMARY: Western blot of ALK fusion protein levels in NCI-H3122 cells
# Type: cell-based
# CONDITION SET: NCI-H3122, NCI-H3122 cells, 500 nM, Western blot; read-out: ALK fusion protein degradation, NCI-H3122 (500 nM)

>  <COMPOUND>
Cc1cc(Nc2ncc(Cl)c(Nc3ccccc3S(=O)(=O)C(C)C)n2)c(OC(C)C)cc1C1CCN(C(=O)CCOCCOCCOCCNc2cccc3c2C(=O)N(C2CCC(=O)NC2=O)C3=O)CC1 (centres unmarked)

>  <EXPERIMENTAL SYSTEM>
ALK fusion protein (Homo sapiens, UniProt Q9UM73)

>  <Dmax at 0.5 µM>
< 20%

$$$$
>  <COMPOUND>
Cc1cc(Nc2ncc(Cl)c(Nc3ccccc3S(=O)(=O)C(C)C)n2)c(OC(C)C)cc1C1CCN(C(=O)CCOCCNc2cccc3c2C(=O)N(C2CCC(=O)NC2=O)C3=O)CC1 (centres unmarked)

>  <EXPERIMENTAL SYSTEM>
ALK fusion protein (Homo sapiens, UniProt Q9UM73)

>  <Dmax at 0.5 µM>
> 80%

$$$$
>  <COMPOUND>
Cc1cc(Nc2ncc(Cl)c(Nc3ccccc3S(=O)(=O)C(C)C)n2)c(OC(C)C)cc1C1CCN(C(=O)CCCC(=O)N[C@H](C(=O)N2C[C@@H](O)C[C@H]2C(=O)NCc2ccc(-c3scnc3C)cc2)C(C)(C)C)CC1

>  <EXPERIMENTAL SYSTEM>
ALK fusion protein (Homo sapiens, UniProt Q9UM73)

>  <Dmax at 0.5 µM>
< 20%

$$$$
>  <COMPOUND>
Cc1cc(Nc2ncc(Cl)c(Nc3ccccc3S(=O)(=O)C(C)C)n2)c(OC(C)C)cc1C1CCN(C(=O)CCOCCOCCC(=O)N[C@H](C(=O)N2C[C@H](O)C[C@H]2C(=O)NCc2ccc(-c3scnc3C)cc2)C(C)(C)C)CC1

>  <EXPERIMENTAL SYSTEM>
ALK fusion protein (Homo sapiens, UniProt Q9UM73)

>  <Dmax at 0.5 µM>
< 20%

$$$$
>  <COMPOUND>
Cc1cc(Nc2ncc(Cl)c(Nc3ccccc3S(=O)(=O)C(C)C)n2)c(OC(C)C)cc1C1CCN(C(=O)CCOCCOCCOCCOCCOCCNc2cccc3c2C(=O)N(C2CCC(=O)NC2=O)C3=O)CC1 (centres unmarked)

>  <EXPERIMENTAL SYSTEM>
ALK fusion protein (Homo sapiens, UniProt Q9UM73)

>  <Dmax at 0.5 µM>
20 to 80%

$$$$
